# target under test: MAP kinase-activated protein kinase 2 (Homo sapiens, UniProt P49137)
# Sequence (P49137 whole entry): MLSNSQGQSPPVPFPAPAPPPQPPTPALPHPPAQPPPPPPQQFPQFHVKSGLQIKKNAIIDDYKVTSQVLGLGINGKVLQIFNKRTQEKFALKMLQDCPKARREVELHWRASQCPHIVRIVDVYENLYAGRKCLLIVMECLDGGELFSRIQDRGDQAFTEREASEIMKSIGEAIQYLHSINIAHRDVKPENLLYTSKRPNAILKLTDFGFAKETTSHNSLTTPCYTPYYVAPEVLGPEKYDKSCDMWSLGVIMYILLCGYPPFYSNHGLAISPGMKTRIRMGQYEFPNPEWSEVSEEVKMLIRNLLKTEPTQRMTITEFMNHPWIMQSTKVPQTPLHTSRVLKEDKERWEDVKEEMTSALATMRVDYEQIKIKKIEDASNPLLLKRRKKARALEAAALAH
# method summary: Inhibition of MK2 using 5TAMRA-KKLNRTLSVA-COOH as substrate incubated for 30 mins prior to substrate addition measured after 30 mins by immobilized metal ion affinity-based fluorescence polarization assay in presence of 100 uM ATP
Recorded IC50 values for a group of molecules are listed next.
Kindly answer with a numeric value in nM, unit omitted.

The examples below pair each entry with its known result.
>>> value_observed("N#Cc1ccc(-c2ccc(C3=NOC(c4ccccc4-c4cncnc4)N3c3ccc(N4CCNCC4)cc3)o2)cc1 (single isomer, unassigned; enantiomer 2)")
340
>>> value_observed("Fc1ccc(C2ON=C(c3ccc(-c4ccc(Cl)cc4)o3)N2c2ccc(N3CCNCC3)cc2)nc1 (stereo not drawn)")
60
>>> value_observed("Fc1ccc(-c2ccc(C3=NOC(c4ccccc4-c4cncnc4)N3c3ccc(N4CCNCC4)cc3)o2)cc1 (stereo not drawn)")
50
>>> value_observed("c1ccc(C2ON=C(c3ccc(-c4ccncc4)o3)N2c2ccc(N3CCNCC3)cc2)c(-c2cncnc2)c1 (stereo not drawn)")
790
>>> value_observed("Clc1ccc(-c2ccc(C3=NOC(c4cccnc4)N3c3ccc(N4CCNCC4)cc3)o2)cc1 (stereo not drawn)")
50
>>> value_observed("Fc1ccc(C2ON=C(c3ccc(-c4ccc(Cl)cc4)o3)N2c2ccc(N3CCNCC3)cc2)cc1 (stereo not drawn)")
160

Consider the additional molecule presented here.
GET /values?readout=IC50&system=MAP kinase-activated protein kinase 2 (Homo sapiens, UniProt P49137)&item= Clc1ccc(-c2ccc(C3=NOCCCN3c3ccc(N4CCNCC4)cc3)o2)cc1
1400
